Origin of values: patent US20220363763A1

- measuredTarget: T1, human LAG3 (construct not stated) (human, UniProt P18627 23-450, limits assumed)
- T1 construct: also called human LAG3 protein; antigen
- T1 sequence (looked up): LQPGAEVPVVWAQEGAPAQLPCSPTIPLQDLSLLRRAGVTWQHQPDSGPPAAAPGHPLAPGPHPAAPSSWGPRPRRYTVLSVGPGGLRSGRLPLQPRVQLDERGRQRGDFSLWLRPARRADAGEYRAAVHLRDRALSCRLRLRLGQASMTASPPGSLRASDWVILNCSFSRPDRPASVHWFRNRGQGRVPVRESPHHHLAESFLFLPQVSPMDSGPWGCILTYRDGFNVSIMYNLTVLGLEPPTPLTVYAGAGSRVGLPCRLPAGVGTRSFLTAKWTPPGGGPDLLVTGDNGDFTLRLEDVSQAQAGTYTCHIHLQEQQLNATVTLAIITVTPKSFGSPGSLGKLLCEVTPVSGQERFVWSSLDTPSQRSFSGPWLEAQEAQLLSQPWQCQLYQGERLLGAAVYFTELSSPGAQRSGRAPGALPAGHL
- protocolText: BLI Octet Red 96, affinity ranking
measurementKind: kon (M⁻¹ s⁻¹)
Reply with just the number (in M⁻¹ s⁻¹).

Enquiry: Give a short answer stating reported kon for 147H-11 (antibody, V domains shown, Common light chain; human gamma 1 / kappa constant domains) VH: EVQLVQSGAEVKKPGASVKVSCKASGYTFTNYWLGWVRQAPGQGLEWMGDIYPGGDYINYNEKFKGKATLTADTSISTAYMELSRLRSDDTAVYYCARPNLPGDYWGQGTTVTVSS VL: DIVMTQSPLSLPVTPGEPASISCRSSKSLLHSNGITYLYWYLQKPGQSPQLLIYQVSNLASGVPDRFSGSGSGTDFTLKISRVEAEDVGVYYCAQNLELPWTFGGGTKVEIK .
Return: 107000

Enquiry: Give a short answer stating reported kon for 147H-5 (antibody, V domains shown, Common light chain; human gamma 1 / kappa constant domains) VH: QVQLVQSGAEVKKPGASVKVSCKASGYTFTNYWLGWVRQAPGQGLEWIGDIYPGGDYINYNEKFKGKATLTADTSISTAYMELSRLRSDDTAVYYCARPNLPGDYWGQGTTVTVSS VL: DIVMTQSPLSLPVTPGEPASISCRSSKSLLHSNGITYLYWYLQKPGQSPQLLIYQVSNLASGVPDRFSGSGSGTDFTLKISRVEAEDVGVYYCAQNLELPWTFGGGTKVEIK .
Return: 95800

Enquiry: Give a short answer stating reported kon for 147H-10 (antibody, V domains shown, Common light chain; human gamma 1 / kappa constant domains) VH: EVQLVQSGAEVKKPGASVKVSCKASGYTFTNYWLGWVRQAPGQGLEWMGDIYPGGDYINYNEKFKGRVTLTADTSISTAYMELSRLRSDDTAVYYCARPNLPGDYWGQGTTVTVSS VL: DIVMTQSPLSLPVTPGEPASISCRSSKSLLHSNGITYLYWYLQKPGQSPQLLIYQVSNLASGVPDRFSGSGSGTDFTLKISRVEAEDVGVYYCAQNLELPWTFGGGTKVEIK .
Return: 49100
